assay: melting temperature; fluorescence melt of hairpins on a sequencing array, two-state fit, raised by 9.35 °C to match UV melts; details: sodium 0.088 M
property: Tm (°C)
Write the value in °C as a bare number.

Task item: In one line, give reported Tm of the entry GGGACCCGAAAGGGCCCC (((.(((....))).))) .
Reply: 67.8

Task item: In one line, give reported Tm of the entry GTGGTCGAAAGACATCAC ((((((....)))..))) .
Reply: 34.2

Task item: In one line, give reported Tm of the entry GGTACGGCGAAAGCCACC (((..(((....)))))) .
Reply: 38.1

Task item: In one line, give reported Tm of the entry GAAACCGAAAGGTTTTTC ((((((....)))..))) .
Reply: 48.8

###

Exercise: for every item that follows, state its recorded Tm.
experiment: melting temperature; fluorescence melt of hairpins on a sequencing array, two-state fit, raised by 9.35 °C to match UV melts; conditions: sodium 0.088 M
Write the value in °C as a bare number.

Task item: In one line, give reported Tm of the entry GCTTCTGGAAACAGGAGC (((.(((....))).))) .
Reply: 50.5

Task item: In one line, give reported Tm of the entry GGAATAGGAAACTGTTCC ((((.((....)).)))) .
Reply: 42.9

Task item: In one line, give reported Tm of the entry GGCATCGAAAGATTGCC ((((((....))).))) .
Reply: 52.7

Task item: In one line, give reported Tm of the entry GGCAGCCGAAAGGCCGCC (((.(((....))).))) .
Reply: 66.9

Task item: In one line, give reported Tm of the entry GGCATGACGAAAGTCGCC (((..(((....)))))) .
Reply: 52.6

Task item: In one line, give reported Tm of the entry GCTGTCCCGAAAGGGAGC (((..(((....)))))) .
Reply: 41.5

Task item: In one line, give reported Tm of the entry GCGCTTGGAAACAGGCGC ((((.((....)).)))) .
Reply: 61.7

Task item: In one line, give reported Tm of the entry GATCTCCCGGAGATC ((((((...)))))) .
Reply: 53.8

Task item: In one line, give reported Tm of the entry GGGTCACCGAAAGGTCCC (((..(((....)))))) .
Reply: 38.9

Task item: In one line, give reported Tm of the entry GATCAGCGCACTGATC ((((((....)))))) .
Reply: 52.5

Task item: In one line, give reported Tm of the entry GCAAGGCGAAAGCCGGGC ((..(((....)))..)) .
Reply: 65.5

Task item: In one line, give reported Tm of the entry GCCAGACGAAAGTCGGC (((.(((....)))))) .
Reply: 66.6

Task item: In one line, give reported Tm of the entry GATCCGTGGACGGATC ((((((....)))))) .
Reply: 62.9

Task item: In one line, give reported Tm of the entry GTGTGCGAAAGCAACCAC ((((((....)))..))) .
Reply: 38.8

Task item: In one line, give reported Tm of the entry GCTCTAGCGAAAGCTAGC (((..(((....)))))) .
Reply: 38.3

Task item: In one line, give reported Tm of the entry GTCAACGGAAACGTTGAC (((((((....))))))) .
Reply: 69

Task item: In one line, give reported Tm of the entry GATCCTCGCAAGGATC ((((((....)))))) .
Reply: 54.8

Task item: In one line, give reported Tm of the entry CGCCCCGGAAACGGCGCG (((.(((....))).))) .
Reply: 52.1

Task item: In one line, give reported Tm of the entry GCAGTAGGAAACTACTGC (((((((....))))))) .
Reply: 64.6

Task item: In one line, give reported Tm of the entry GGATTTCGAAAGAAGTCC (((.(((....))).))) .
Reply: 49.3

Task item: In one line, give reported Tm of the entry GAGACCCGAAAGGGCTC (((.(((....)))))) .
Reply: 55.4

Task item: In one line, give reported Tm of the entry GCTAACGAAAGTTAGC ((((((....)))))) .
Reply: 66.8

Task item: In one line, give reported Tm of the entry GCGAGTCGAAAGACCCGC (((.(((....))).))) .
Reply: 57.3

Task item: In one line, give reported Tm of the entry GATCCGCCGCCGGATC ((((((....)))))) .
Reply: 59

Task item: In one line, give reported Tm of the entry GGAGACGAAAGTCTGTCC ((((((....)))..))) .
Reply: 34.5

Task item: In one line, give reported Tm of the entry GCGGAATACCGC ((((....)))) .
Reply: 54.2

Task item: In one line, give reported Tm of the entry GCGACTAATCGC ((((....)))) .
Reply: 47.2

###

test: folding enthalpy; higher = less favourable; fluorescence melt of hairpins on a sequencing array, two-state fit; settings: sodium 0.088 M
Exercise: for every item that follows, state its recorded folding enthalpy.
Write the value in kcal/mol as a bare number.

Task item: In one line, give reported folding enthalpy of the entry GCTTGGGGAAACCCAAAC (.(((((....))))).) .
Reply: -14.5

Task item: In one line, give reported folding enthalpy of the entry GATCGTTCAGACGATC ((((((....)))))) .
Reply: -38.9

Task item: In one line, give reported folding enthalpy of the entry GACCTGGGAAACTGGGTC ((((..(....)..)))) .
Reply: -25

Task item: In one line, give reported folding enthalpy of the entry GATCAAGAGGTTGATC ((((((....)))))) .
Reply: -24.2

Task item: In one line, give reported folding enthalpy of the entry GCAACGCGAAAGCGGCGC ((..(((....)))..)) .
Reply: -26.6

Task item: In one line, give reported folding enthalpy of the entry GTCAGACCGAAAGGTGAC (((..(((....)))))) .
Reply: -21.4

Task item: In one line, give reported folding enthalpy of the entry GATCTGGAAGCAGATC ((((((....)))))) .
Reply: -37.8

Task item: In one line, give reported folding enthalpy of the entry GGGATAGGAAACCATCCC (((((.(....).))))) .
Reply: -30.9

Task item: In one line, give reported folding enthalpy of the entry GTATCCGGAAACGGACAC ((.((((....)))).)) .
Reply: -19.8

###

assay: melting temperature; fluorescence melt of hairpins on a sequencing array, two-state fit, raised by 9.35 °C to match UV melts; settings: sodium 0.088 M
Binarize Tm at 50 °C; below is Fulfilled, at or above is Not fulfilled.

Task item: Would you kindly verify if Tm of GTCATGGGAAACTGTGAC ((((..(....)..)))) is strictly less than 50 °C?
Reply: Fulfilled

Task item: Would you kindly verify if Tm of GATCCGAATCGGATC ((((((...)))))) is strictly less than 50 °C?
Reply: Not fulfilled

Task item: Would you kindly verify if Tm of GCAAGGGGAAACCCTTGC (((((((....))))))) is strictly less than 50 °C?
Reply: Not fulfilled

Task item: Would you kindly verify if Tm of GCACGGACGAAAGTCTGC (((..(((....)))))) is strictly less than 50 °C?
Reply: Fulfilled

Task item: Would you kindly verify if Tm of GATCGCAGACGCGATC ((((((....)))))) is strictly less than 50 °C?
Reply: Not fulfilled

Task item: Would you kindly verify if Tm of GGAGACCGAAAGGTGTCC (((.(((....))).))) is strictly less than 50 °C?
Reply: Not fulfilled

Task item: Would you kindly verify if Tm of GTGCACGAAAGTGGCCAC ((((((....)))..))) is strictly less than 50 °C?
Reply: Fulfilled

Task item: Would you kindly verify if Tm of GATCTGCCCACAGATC ((((((....)))))) is strictly less than 50 °C?
Reply: Not fulfilled

Task item: Would you kindly verify if Tm of GCTCGAGGAAACTCAAGC (((.(((....))).))) is strictly less than 50 °C?
Reply: Fulfilled

Task item: Would you kindly verify if Tm of GGTGTAGGAAACTGTACC (((..((....))..))) is strictly less than 50 °C?
Reply: Fulfilled

Task item: Would you kindly verify if Tm of GGTCGGGGAAACCCGGTC (..((((....))))..) is strictly less than 50 °C?
Reply: Fulfilled

Task item: Would you kindly verify if Tm of GGCAGCGAAAGCTTGGCC ((((((....)))..))) is strictly less than 50 °C?
Reply: Not fulfilled

Task item: Would you kindly verify if Tm of GAGTCTCCGAAAGGACTC (((..(((....)))))) is strictly less than 50 °C?
Reply: Fulfilled

Task item: Would you kindly verify if Tm of GGCTGGACGAAAGTCGCC (((..(((....)))))) is strictly less than 50 °C?
Reply: Not fulfilled

Task item: Would you kindly verify if Tm of GCTGTAGAAATACAGC ((((((....)))))) is strictly less than 50 °C?
Reply: Not fulfilled

Task item: Would you kindly verify if Tm of GGGTGTCGAAAGACCCCC (((.(((....))).))) is strictly less than 50 °C?
Reply: Not fulfilled

Task item: Would you kindly verify if Tm of GTTTGCGAAAGCAGAAC ((((((....))).))) is strictly less than 50 °C?
Reply: Fulfilled
